# protocol summary: Effect of food study: plasma pharmacokinetics fasted vs high-fat breakfast
# Assay type: in vivo, humans
# condition notes: male, human, plasma, oral, 100 mg, 100 mg eplerenone capsule; Fasted Conditions; […] after dosing
property name: concentration at 24 h (ng/mL)
Write it as a number; the unit ng/mL goes unstated.

Task: Name the reported concentration at 24 h value associated with the compound COC(=O)C1CC2=CC(=O)CCC2(C)C23OC2CC2(C)C(CC[C@@]24CCC(=O)O4)C13 (stereo partly shown)
Output: 17.7

---

# protocol summary: Multiple dose study: plasma pharmacokinetics and urinary excretion
# Assay type: in vivo, humans
# condition notes: male, human, plasma, oral, 1000 mg, eplerenone 1000 mg Dose; Multiple Dose
property name: AUC (ng·h/mL)
Write it as a number; the unit ng·h/mL goes unstated.

Task: Name the reported AUC value associated with the molecule COC(=O)C1CC2=CC(=O)CCC2(C)C23OC2CC2(C)C(CC[C@@]24CCC(=O)O4)C13 (stereo partly shown)
Output: 63200
